Each recorded value in this set is attributed to the supplement of paper PMC8183993.

Tested on: U2OS
assay protocol: nuclei count (viability) relative to DMSO (% of DMSO); higher = more viable cells
condition info: 10 µM; 24 h
Structures can show the parent of a compound that is named as a salt. The full ranking holds about 3,200 compounds; the median of “nuclei count (viability) relative to DMSO” is about 99, and the lowest 2% start at about 16. The sample holds the lowest values, similar compounds and a random draw of the others, so the mix is not that of the screen.
Each entry gets False if its nuclei count stays under 80, and True if its nuclei count is 80 or above.

1) CC(=O)C1=C(O)[C@@H]2[C@H]3c4c[nH]c5cccc(c45)C[C@H]3C(C)(C)N2C1=O [Cyclopiazonic acid] : False
2) CO[C@@H]1[C@H](OC(=O)NC(=O)CCl)CC[C@]2(CO2)[C@H]1[C@@]1(C)O[C@@H]1CC=C(C)C : True
3) CC(C(=O)OC1CC2CCC(C1)N2C)c1ccc(Br)cc1 (stereo unspecified) [PG-9 maleate] : True
4) CN1C(=O)[C@]23CC4=CC=C[C@H](O)[C@H]4N2C(=O)[C@@]1(CO)SS3 : False
5) CC(C)(O)[C@H]1O[C@H]2CC[C@@]3(C)[C@@](O)(CC[C@H]4Cc5c([nH]c6ccccc56)[C@@]43C)C2=CC1=O : True
6) CC(=O)N1CC[N+](C)(C)CC1 [4-Acetyl-1,1-dimethylpiperazinium iodide] : True
7) O=C(CCCN1CCC2(CC1)C(=O)N(Cc1cccc(F)c1)CN2c1ccccc1)c1ccc(F)cc1 [3'-Fluorobenzylspiperone maleate] : False
8) CC12NC(Cc3ccccc31)c1ccccc12 (single isomer, unassigned; (+)) [(+)-MK 801 maleate] : True
9) Cc1ccc(C[N+](C)(C)C)o1 [5-Methylfurmethiodide] : True
10) O=C1NC(=O)c2c1c1c3ccccc3n3c1c1c2c2ccccc2n1[C@H]1CC[C@@H]3O1 : False
11) CN(C(=O)Cc1ccccc1)C(CN1CCCC1)c1ccccc1 (stereo unspecified) [N-MPPP Hydrochloride] : True
12) CN[C@@H]1C[C@H]2O[C@@](C)([C@@H]1OC)n1c3ccccc3c3c4c(c5c6ccccc6n2c5c31)C(=O)NC4 : False
13) CC(C)(c1ccc(OCC2CO2)cc1)c1ccc(OCC2CO2)cc1 (stereo unspecified) : True
14) CC(=O)C1=C(O)[C@@H]2[C@H]3c4c[nH]c5cccc(c45)C[C@H]3C(C)(C)N2C1=O [Cyclopiazonic Acid] : True
15) C[CH2][Hg][S]c1ccccc1C(=O)[O-].[Na+] : False
